target: Ecdysone receptor (Spodoptera frugiperda, UniProt Q8MWR1+Q8MWR2); assay: Displacement of [3H]PonA from ecdysone receptor in Spodoptera frugiperda (fall armyworm) Sf-9 cells after 30 min by liquid scintillation counting
Sequence (Q8MWR2 whole entry): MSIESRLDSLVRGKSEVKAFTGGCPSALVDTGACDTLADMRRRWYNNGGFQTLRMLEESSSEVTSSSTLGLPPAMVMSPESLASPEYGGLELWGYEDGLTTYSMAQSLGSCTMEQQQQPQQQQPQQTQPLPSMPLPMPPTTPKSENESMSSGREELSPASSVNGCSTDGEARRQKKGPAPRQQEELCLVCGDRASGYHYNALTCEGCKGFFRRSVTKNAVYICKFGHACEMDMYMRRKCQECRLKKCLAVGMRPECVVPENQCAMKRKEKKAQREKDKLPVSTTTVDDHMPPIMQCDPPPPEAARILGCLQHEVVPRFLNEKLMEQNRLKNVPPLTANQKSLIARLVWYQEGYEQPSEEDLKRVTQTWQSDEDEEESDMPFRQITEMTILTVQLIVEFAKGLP
Sequence (Q8MWR1 whole entry): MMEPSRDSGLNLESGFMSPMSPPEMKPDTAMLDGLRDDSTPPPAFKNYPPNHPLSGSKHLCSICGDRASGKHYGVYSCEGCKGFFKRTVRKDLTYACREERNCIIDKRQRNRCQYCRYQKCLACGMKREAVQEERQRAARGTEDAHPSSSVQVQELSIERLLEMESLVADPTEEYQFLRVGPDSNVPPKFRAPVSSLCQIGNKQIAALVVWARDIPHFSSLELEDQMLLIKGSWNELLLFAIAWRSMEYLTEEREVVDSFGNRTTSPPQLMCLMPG
EXPERIMENTAL ENDPOINT: log10 IC50 (log10 of the value in nM)
Scale type: logarithmic (base 10). Underlying IC50 unit: nM.

Some compounds with recorded log10 IC50:
CC(C)(C)N(NC(=O)c1ccc(S(C)(=O)=O)cc1)C(=O)c1ccccc1Cl 3.46
CCCCc1ccc(C(=O)NN(C(=O)c2ccccc2Cl)C(C)(C)C)cc1 0.73
CC(C)(C)N(NC(=O)c1ccc(Cl)cc1)C(=O)c1ccccc1Cl 2.11
CC(C)(C)N(NC(=O)c1ccc(C#N)cc1)C(=O)c1ccccc1Cl 3.26
CC(C)(C)N(NC(=O)c1ccc(C(F)(F)F)cc1)C(=O)c1ccccc1Cl 2.04
CC(C)(C)N(NC(=O)c1ccc(Br)cc1)C(=O)c1ccccc1Cl 1.31

# query: log10 IC50 of entry `CC(C)(C)N(NC(=O)c1ccc(I)cc1)C(=O)c1ccccc1Cl` 1.70

For the compound shown here, `CC(=O)c1ccc(C(=O)NN(C(=O)c2ccccc2Cl)C(C)(C)C)cc1` , give the reported log10 IC50. 2.63

---

molecular target: Ecdysone receptor (Spodoptera frugiperda, UniProt Q8MWR1+Q8MWR2); test: Displacement of [3H]PonA from ecdysone receptor in Spodoptera frugiperda (fall armyworm) Sf-9 cells after 30 min by liquid scintillation counting
pIC50: −log10 of the molar value.
Would you mind labelling by pIC50? At or over 7 is rule met, under is rule not met.

Please review the entries below; each comes with its answer.
CC(C)(C)N(NC(=O)c1ccc(-c2ccccc2)cc1)C(=O)c1ccccc1Cl rule not met
CC(C)(C)c1ccc(C(=O)NN(C(=O)c2ccccc2Cl)C(C)(C)C)cc1 rule met
CC(C)c1ccc(C(=O)NN(C(=O)c2ccccc2Cl)C(C)(C)C)cc1 rule met
CC(C)(C)N(NC(=O)c1ccc([N+](=O)[O-])cc1)C(=O)c1ccccc1Cl rule not met
CCCc1ccc(C(=O)NN(C(=O)c2ccccc2Cl)C(C)(C)C)cc1 rule met

Item `CC(C)(C)N(NC(=O)c1ccc(F)cc1)C(=O)c1ccccc1Cl` with pIC50 of 7 or above? rule met

Quick check, pIC50 >= 7? `Cc1ccc(C(=O)NN(C(=O)c2ccccc2Cl)C(C)(C)C)cc1` rule met

Determine whether measured pIC50 meets or exceeds 7 for `CCc1ccc(C(=O)NN(C(=O)c2ccccc2Cl)C(C)(C)C)cc1` rule met
